B1: library; numbered along this chain (parent)
chain: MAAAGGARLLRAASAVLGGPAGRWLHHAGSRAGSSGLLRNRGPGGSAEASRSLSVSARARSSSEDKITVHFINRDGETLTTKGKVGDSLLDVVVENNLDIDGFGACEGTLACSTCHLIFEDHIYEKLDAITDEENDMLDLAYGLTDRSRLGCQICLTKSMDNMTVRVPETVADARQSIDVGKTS

Variants of: B1
Experiment: scaled log2 fold change in cell abundance, elesclomol vs control (0 = silent mean, 1 = nonsense mean) (scaled log2 ratio); higher = higher viability under elesclomol (loss of FDX1 cuproptosis function);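 further: variant abundance is its share of total variant reads in each endpoint sample, from next-generation sequencing of the integrated ORF PCR-amplified out of genomic DNA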
Details: with ABC1 FDX1 KO; elesclomol 5 nM; glucose 10 mM; 14 days
Measured Parameter: scaled log2 fold change
Give the figure only, with no unit attached.

>  <Mutation Spec>
S177C

>  <Numeric Readout>
-0.309

$$$$
>  <Mutation Spec>
R147C

>  <Numeric Readout>
-0.148

$$$$
>  <Mutation Spec>
E134W

>  <Numeric Readout>
1.07

$$$$
>  <Mutation Spec>
A28W

>  <Numeric Readout>
-0.122

$$$$
>  <Mutation Spec>
V171S

>  <Numeric Readout>
-0.0546

$$$$
>  <Mutation Spec>
L10R

>  <Numeric Readout>
0.663

$$$$
>  <Mutation Spec>
A15H

>  <Numeric Readout>
0.0941

$$$$
>  <Mutation Spec>
L9Y

>  <Numeric Readout>
0.485

$$$$
>  <Mutation Spec>
L17D

>  <Numeric Readout>
0.342

$$$$
>  <Mutation Spec>
T164H

>  <Numeric Readout>
0.213

$$$$

q: I am curious: what scaled log2 fold change value has been reported for G102D ?
a: -0.0623

q: Try the variant T145S
a: 0.00135

q: Try the variant G108S
a: 0.376

q: Try the variant G143D
a: 0.242

q: Try the variant V93R
a: 0.275
